test system: UACC-62 melanoma; assay: NCI-60 one-dose screen, 48 h; conditions: 10 µM unless noted
Compounds without any hit were thinned out: in the full panel of roughly 83,000, 20% have a hit. Calls of active or inactive are those of the source. How the source made its calls: active means growth percent below 10; inactive means the rest.
// one of active, inactive, no free text

compound | answer.label
O=C(OCc1ccccc1)n1nnc2ccccc21 | inactive
Cc1[nH]c(=S)[nH]c(=O)c1C | inactive
CCOc1ccccc1NC(=O)CCl | inactive
CCC(=O)Oc1ccc2ccccc2c1 | inactive
CS(=O)CC(=N\O)/C(CS(C)=O)=N\O (stereo unspecified) | inactive

Next, consider the following compound.
Request: Just curious, what result did Cn1c2ccccc2c2nnc(NCCCCO)nc21 get here?
Result: inactive

* * *

test system: NCI-H522 lung; experiment: NCI-60 one-dose screen, 48 h; conditions: 10 µM unless noted
This is part of a sample that, as a whole, favours compounds with a hit. Of some 83,000 tested, about 20% had one in any assay. The source made the active and inactive calls. How the source made its calls: active means growth percent below 10; inactive means the rest.
// one of active, inactive, no free text

compound | answer.label
O=C(NCc1ccccc1)/C(=C/c1ccccc1)NC(=O)c1ccccc1 | inactive
CCCCc1ccc2nc(NC(=O)OC)[nH]c2c1 | active
CC1(c2ccccc2)CO1 (configuration not stated) | inactive
Cc1ccc(S(=O)(=O)NC(=O)NCCSSCCNC(=O)NS(=O)(=O)c2ccc(C)cc2)cc1 | inactive
CCCCCCCCCCCCCC/C=C\C(CC(=O)O)C(=O)O (configuration not stated) | inactive

Request: Just curious, what result did S=C=Nc1ccc2ccccc2c1 get here?
Result: inactive

Request: Same question, C=C(c1ccc(N(C)C)cc1)c1ccc(N(C)C)cc1 this time
Result: active

Request: Same question, Oc1cc(O)c2c(c1)O[C@H](c1ccc(O)c(O)c1)[C@@H](O)C2 this time
Result: inactive

Request: Same question, OCC1CCC(O)C(CO)N1 (configuration not stated) this time
Result: inactive

Request: Same question, O=C(NCc1ccco1)Nc1cccc2c(NC(=O)NCc3ccco3)cccc12 this time
Result: inactive

Request: Same question, CCOC(=O)c1ccc(NC(=O)Nc2nccs2)cc1 this time
Result: active

* * *

For each entry below, report its growth value.
System: MCF7 breast
Experiment: NCI-60 one-dose screen, 48 h (100 = growth as untreated, 0 = no growth, -100 = all killed)
Conditions: 10 µM unless noted
Protocol: Growth inhibition of the MCF7 human tumor cell line is measured as a screen for anti-cancer activity. Cells are grown in 96 well plates and exposed to the test compound for 48 hours. Compounds are tested at a single concentration, which is 10^-5 M for most compounds. The reported endpoint is percent growth (GI% or GIPRCNT), where numbers from 0 - 100% represent growth inhibition, and numbers from -100% - 0 represent cell death. For example, a value of 40 represents 60% growth inhibition. […]
Compounds without any hit were thinned out: in the full panel of roughly 83,000, 20% have a hit.
One number for each entry, in %.

query.smiles | measured.target | test.value
S=c1nc(-c2ccccn2)c(-c2ccccn2)n[nH]1 | MCF7 breast | 96.9

Provide growth values for the following items, in order.
1. N#C/C(=C\NC(=S)N=Nc1c(O)[nH]c2ccccc12)c1nc2ccccc2s1
2. Cc1ccc(N)c(S(=O)(=O)O)c1

Result:
76
98.9

* * *

tested on: CAKI-1 renal; assay: NCI-60 one-dose screen, 48 h (100 = growth as untreated, 0 = no growth, -100 = all killed); settings: 10 µM unless noted
This is part of a sample that, as a whole, favours compounds with a hit. Of some 83,000 tested, about 20% had one in any assay.
For each entry below, report its growth value.
Give bare numbers, in %.

compound | measured.target | growth, %
CC(=O)Nc1ccc(C(=O)c2ccc(S(=O)(=O)Nc3ccccc3)cc2)cc1 | CAKI-1 renal | 106

Provide growth values for the following items, in order.
1. O=C1C=CC(=O)C2=C1CCCC2
2. CCCCCCCCCCC(=O)CCCCCCCCCC
3. Cn1c2ccccc2c2nnc(NCCCCO)nc21

Result:
79
95
66.4

* * *

test system: OVCAR-8 ovarian; assay: NCI-60 one-dose screen, 48 h (100 = growth as untreated, 0 = no growth, -100 = all killed); conditions: 10 µM unless noted
About 83,000 compounds went through this panel and 20% of them were active in at least one assay; those are over-represented in the sample as a whole.
recorded.metric: growth (%)
Numbers only, in %.

Solved entries (count: 5):
compound | unit.of.measure | growth
Cc1nc(O)cc(=O)[nH]1 | % | 105
CC(=O)[C@@]1(O)CC[C@H]2[C@@H]3CC[C@@H]4CC(=O)CC[C@]4(C)[C@H]3[C@@H](O)C[C@@]21C | % | 101
Nc1ccc2ccccc2c1-c1c(N)ccc2ccccc12 | % | 44
c1ccc2[nH]c(Cc3nc4ccccc4[nH]3)nc2c1 | % | 112
S=C(Sc1ccc(Cl)cc1)Sc1ccc(Cl)cc1 | % | 22.1

Provide growth values for the following items, in order.
1. O=S(Cc1ccccc1)/C(=C/NC(=S)Nc1cc(Cl)ccc1Cl)c1ccccc1 (configuration not stated)
2. O=C1NC(=O)/C(=C\c2ccncc2)N1

Result:
1. 113
2. 103

* * *

tested on: HCT-116 colon; assay: NCI-60 one-dose screen, 48 h; settings: 10 µM unless noted
Compounds without any hit were thinned out: in the full panel of roughly 83,000, 20% have a hit. Activity calls are given as the source filed them. The calls were made as follows: active = growth percent below 10; inactive = the rest.
// one of active, inactive, no free text

Would you please look over these solved cases?
compound | measured.target | answer.label
C=CCc1cc(OC)c(O)c(OC)c1 | HCT-116 colon | inactive
CC(C)c1ccccc1NC(=O)N1CCC(C(C)C)CC1 | HCT-116 colon | inactive

Request: Just curious, what result did NC(=O)NCCO get here?
Result: inactive

Request: Same question, Cc1ccc(O)c(N)c1 this time
Result: inactive

Request: Same question, CCOC(=O)CNC(=O)Sc1ccc(C(C)(C)C)cc1 this time
Result: inactive

Request: Same question, c1ccc(-c2ccc3ccccc3c2)cc1 this time
Result: inactive

* * *

system: MCF7 breast; assay: NCI-60 one-dose screen, 48 h (100 = growth as untreated, 0 = no growth, -100 = all killed); settings: 10 µM unless noted
Compounds without any hit were thinned out: in the full panel of roughly 83,000, 20% have a hit.
recorded.metric: growth (%)
Numbers only, in %.

compound | unit.of.measure | growth
O=C(O)c1c[nH]c2ccccc2c1=O | % | 93.9
COc1nc2ccccc2s1 | % | 87.8
CCOC(=O)C(=O)CC(=O)c1ccccc1 | % | 96.7
O=C(c1ccccc1O)N1CCCC1 | % | 90.6
O=C(O)Cc1ccccn1 | % | 100

Provide growth values for the following items, in order.
1. Cn1c(=O)c2[nH]c(CC(=O)O)nc2n(C)c1=O
2. O=[n+]1ccn([O-])c2ccccc21
3. CC(CCC#N)(CCC#N)C(=O)c1ccccc1
4. CC(c1ccccc1)N1C(=O)CSC1=S (stereo unspecified)
5. Cc1[nH]c(=S)[nH]c(=O)c1C
6. CCCCCCCCCCCCSC1=C(Cl)C(=O)C(OC)=C(OC)C1=O
7. C=CCc1cc(OC)c(O)c(OC)c1
8. CCOC(=O)N[C@H]1CCc2cc(OC)c(OC)c(OC)c2-c2ccc(SC)c(=O)cc21

Result:
1. 101
2. 95.8
3. 95.9
4. 6.61
5. 101
6. 6.48
7. 96.9
8. 13.5

* * *

test system: HCC-2998 colon; assay: NCI-60 one-dose screen, 48 h (100 = growth as untreated, 0 = no growth, -100 = all killed); conditions: 10 µM unless noted
About 83,000 compounds went through this panel and 20% of them were active in at least one assay; those are over-represented in the sample as a whole.
For each entry below, report its growth value.
One number for each entry, in %.

Solved entries (count: 2):
compound | growth / %
Cc1nc(C)c(C(=O)O)cc1C(=O)O | 101
Cc1[nH]c(=S)[nH]c(=O)c1C | 103

Provide growth values for the following items, in order.
1. Nc1cc(N)ncn1
2. COc1cc(C(=O)O)c(O)c(C(C)(C)C)c1
3. Cn1c2ccccc2c2nnc(NCCCCO)nc21
4. Cn1c(=O)c2[nH]c(CC(=O)O)nc2n(C)c1=O
5. COC(=O)c1ccc([N+](=O)[O-])c(C)c1
6. Nc1ccn(C2OC(CO)C(O)C2F)c(=O)n1 (stereo unspecified)
7. CCN1CCCC(N2c3ccccc3Sc3ccccc32)C1 (stereo unspecified)

Result:
99.6
96.7
98
101
106
49.7
103

Provide growth values for the following items, in order.
1. CN(C(=S)S(=O)(=O)C12CC3CC(CC(C3)C1)C2)c1ccccc1
2. O=C(CCl)Nc1ccccc1SCc1cc(Cl)cc2c1OCOC2
3. N#Cc1ccc2nc[nH]c2c1
4. Oc1cc(O)c2c(c1)O[C@H](c1ccc(O)c(O)c1)[C@@H](O)C2
5. CCN(CC)CCN1CNC(=S)NC1
6. CC(=O)NCNC(C)=O

Result:
1: 104; 2: 99.1; 3: 110; 4: 108; 5: 109; 6: 113
